test system: Enterobacter cloacae
Positions of bridges follow the written chain, without caps; N, C: chain ends. Non-standard residues stand in square brackets, D forms with d. Residues, ends and D or L forms follow the SMILES beside them. *: point of attachment. Benzoyl(3-CF3) = O=C(c1cccc(C(F)(F)F)c1)*; X12 = O=C(c1ccc(C(F)(F)F)c(F)c1)*; Octanoyl = CCCCCCCC(=O)*; Orn = NCCC[C@H](N)C(=O)O; Dab = NCC[C@H](N)C(=O)O; Abu = CC[C@H](N)C(=O)O; Dap = NC[C@H](N)C(=O)O
endpoint label: Minimum inhibitory concentration, Ec FADDI-EC003

molecule: CC[C@@H]1NC(=O)[C@@H](CC(C)C)NC(=O)[C@H](CCN)NC(=O)[C@@H](NC(=O)[C@H](CN)NC(=O)[C@@H](NC(=O)[C@H](CCN)NC(=O)c2ccc(C(F)(F)F)c(F)c2)[C@@H](C)O)CCNC(=O)[C@H]([C@@H](C)O)NC(=O)[C@H](CCN)NC(=O)[C@H](CCN)NC1=O [Compound 111] (X12-[Dab]T[Dap][Dab][Dab][dL][Abu][Dab][Dab]T; lactam 4-C)
reported value: 0.25 µg/mL
--
molecule: C[C@@H](O)[C@@H]1NC(=O)[C@H](CCN)NC(=O)[C@H](CCN)NC(=O)[C@H]([C@@H](C)O)NC(=O)[C@@H](Cc2ccccc2)NC(=O)[C@H](CCN)NC(=O)[C@@H](NC(=O)[C@H](CN)NC(=O)[C@@H](NC(=O)[C@H](CCN)NC(=O)c2cccc(C(F)(F)F)c2)[C@@H](C)O)CCNC1=O [Compound 124] ({Benzoyl(3-CF3)}-[Dab]T[Dap][Dab][Dab][dF]T[Dab][Dab]T; lactam 4-C)
reported value: <0.125 µg/mL
--
molecule: CCCCCCCC(=O)N[C@@H](CCN)C(=O)N[C@H](C(=O)N[C@@H](CCCN)C(=O)N[C@H]1CCNC(=O)[C@H]([C@@H](C)O)NC(=O)[C@H](CCN)NC(=O)[C@H](CCN)NC(=O)[C@H]([C@@H](C)O)NC(=O)[C@@H](CC(C)C)NC(=O)[C@H](CCN)NC1=O)[C@@H](C)O [Compound 34] (Octanoyl-[Dab]T[Orn][Dab][Dab][dL]T[Dab][Dab]T; lactam 4-C)
reported value: <0.125 µg/mL

====

Recorded measurements of Minimum inhibitory concentration, Pa FADDI-PA022, one per entry
system: Pseudomonas aeruginosa; settings: Pseudomonas aeruginosa FADDI-PA022; broth microdilution in CAMHB
Positions of bridges follow the written chain, without caps; N, C: chain ends. Non-standard residues stand in square brackets, D forms with d. Residues, ends and D or L forms follow the SMILES beside them. *: point of attachment. Phenylacetyl(3-Cl) = O=C(Cc1cccc(Cl)c1)*; Benzoyl(3-Cl) = O=C(c1cccc(Cl)c1)*; Dab = NCC[C@H](N)C(=O)O; Abu = CC[C@H](N)C(=O)O; Dap = NC[C@H](N)C(=O)O; PhAc = O=C(Cc1ccccc1)*
endpoint label: Minimum inhibitory concentration, Pa FADDI-PA022 (µg/mL)

compound: CC(C)C[C@H]1NC(=O)[C@H](CCN)NC(=O)[C@@H](NC(=O)[C@H](CCN)NC(=O)[C@@H](NC(=O)[C@H](CCN)NC(=O)Cc2ccccc2)[C@@H](C)O)CCNC(=O)[C@H]([C@@H](C)O)NC(=O)[C@H](CCN)NC(=O)[C@H](CCN)NC(=O)[C@H]([C@@H](C)O)NC1=O [Compound 30] (PhAc-[Dab]T[Dab][Dab][Dab][dL]T[Dab][Dab]T; lactam 4-C)
reported value: 1
//
compound: CC[C@@H]1NC(=O)[C@@H](CC(C)C)NC(=O)[C@H](CCN)NC(=O)[C@@H](NC(=O)[C@H](CN)NC(=O)[C@@H](NC(=O)[C@H](CCN)NC(=O)Cc2cccc(Cl)c2)[C@@H](C)O)CCNC(=O)[C@H]([C@@H](C)O)NC(=O)[C@H](CCN)NC(=O)[C@H](CCN)NC1=O [Compound 79] ({Phenylacetyl(3-Cl)}-[Dab]T[Dap][Dab][Dab][dL][Abu][Dab][Dab]T; lactam 4-C)
reported value: 1
//
compound: CC[C@@H]1NC(=O)[C@@H](CC(C)C)NC(=O)[C@H](CCN)NC(=O)[C@@H](NC(=O)[C@H](CN)NC(=O)[C@@H](NC(=O)[C@H](CCN)NC(=O)c2cccc(Cl)c2)[C@@H](C)O)CCNC(=O)[C@H]([C@@H](C)O)NC(=O)[C@H](CCN)NC(=O)[C@H](CCN)NC1=O [Compound 88] ({Benzoyl(3-Cl)}-[Dab]T[Dap][Dab][Dab][dL][Abu][Dab][Dab]T; lactam 4-C)
reported value: 1
